Reported apparent KD of MS2 coat protein values for a set of sequences
tested on: MS2 coat protein; test: apparent KD of MS2 coat protein; designed switch direction (-1 OFF switch, 1 ON switch): -1; higher = weaker reporter binding; conditions: Eterna round: R95; input ligand: none
Lab book: enter the figure in nM, no units written.

>  <Chain sequence>
UAGAAACAUGAGGAUCACCCAUGUGAGGAUAUGAAAAAGAAAAGAAAAGAAAGAAGAAUCAGAAGGCACAAAGA [salish99-ex1_r3_083] (puzzle: Exclusion 1)

>  <Unit label>
nM

>  <apparent KD of MS2 coat protein>
23.6

$$$$

Given the entry AGAAAUGCCCAUGGCCGCAAGCUUCUUGCUUGUCUUACCACAUGAGGAUCACCCAUGUGACAUGGGCUCCUUAUAAU [Xeceenqu] (puzzle: Sensor v3, turn-off variant 2) , report its measured apparent KD of MS2 coat protein. 11.3

Given the entry GAUUAUGCGAGCUUUAGGGACAUGAGGAUCACCCAUGUUCGUCUUGUUGAUCUAGGUACACUGACAUACCUAAAUCU [JMF 65] (puzzle: Sensor v3, turn-off variant 1) , report its measured apparent KD of MS2 coat protein. 18.3

Given the entry GAUUAUGCGAGCUUUAGGGACAUGAGGAUCACCCAUGUUCGUCUUAUUGAUCUAGGUACGCUGACAUACCUAAAUCU [Mod of one of jandersonlee's solutions 2] (puzzle: Sensor v3, turn-off variant 1) , report its measured apparent KD of MS2 coat protein. 24.4

Given the entry ACAAGCUUUUAGUUCGUCUUAUACACUCCUAAUAAGAAAACAUGAGGAUCACCCAUGUAAGAAAUAAGAACUCAUGU [Sesor Array 2 - Jieux - Sensor v3, turn-off variant 2] (puzzle: Sensor v3, turn-off variant 2) , report its measured apparent KD of MS2 coat protein. 209

====

Reported apparent KD of MS2 coat protein values for a set of sequences
test system: MS2 coat protein; assay: apparent KD of MS2 coat protein; designed switch direction (-1 OFF switch, 1 ON switch): -1; higher = weaker reporter binding; settings: input ligand: FMN 200 uM
Lab book: enter the figure in nM, no units written.

>  <Chain sequence>
AUGUAGGAAGGAUAUGCGUCGGCAUGAAAUCCUUGUUGGCCACAUGAGGAUCACCCAUGUAGAAGGUUCACGUA [Eternabot (L2) Solution 10] (Eterna round: R97, puzzle: Exclusion 2)

>  <apparent KD of MS2 coat protein [nM]>
48.8

$$$$
>  <Chain sequence>
AGCUGUGGCCGAGGAUAUGACAUGAGGAUCACCCAUGUACAUGAUUAGGCCUGGUAACAGGCUCGUCAGAAGGCGGUCUCAGCA [Eli eng2 - 009] (Eterna round: R96, puzzle: Exclusion NG 2)

>  <apparent KD of MS2 coat protein [nM]>
46.2

$$$$
>  <Chain sequence>
CUAAUACAUGUGAGGAUAUACGACUUGGAGACGGCGUAGAAGGUACAUGAGGAUCACCCAUGUGCGGGCUCCUU [Eternabot (L1) Solution 49] (Eterna round: R97, puzzle: Brourd's mod of Exclusion 4)

>  <apparent KD of MS2 coat protein [nM]>
55.9

$$$$
>  <Chain sequence>
CAGCUGAAUGUGAGGAUAUGUCGAGCUGCGGCUCGAUAGAAGGCACAUGAGGAUCACCCAUGUCUCAACAGCUG [BmEx4/2-C3] (Eterna round: R97, puzzle: Brourd's mod of Exclusion 4)

>  <apparent KD of MS2 coat protein [nM]>
215

$$$$

Given the entry UUUAUACAUGAGGAUCACCCAUGUGAGGAUAUGCUUUAUUAUUAUUAUUAUUAUUAUUGCAGAAGGUACAUUAU [LRO-Excl01-14] (Eterna round: R97, puzzle: Exclusion 1) , report its measured apparent KD of MS2 coat protein. 35.7

====

Reported apparent KD of K4 kissing-loop reporter values for a set of sequences
test system: K4 kissing-loop RNA reporter; experiment: apparent KD of K4 kissing-loop reporter; higher = weaker reporter binding; conditions: Eterna round: R107; input ligand: theophylline 20 uM
Lab book: enter the figure in nM, no units written.

>  <Chain sequence>
GAUUUAGAGGCGGCCGCCACUAGUGAUGUUAGUGAUGUUUGAUACUGAAUAUAUCUGCGUUUAGAUAGGACCGGGCCAGAUGGAG [qzwqmullin]

>  <Unit label>
nM

>  <Reading>
193

$$$$
>  <Chain sequence>
GCCAUCAGGUCGCAAGACCUGAUAGCCGAUACCAGCGCGAAGGUGCGCCCUUGGCAGCGGCACCGAGUGAUGUUCGGUCAGGCGG [#2 Same State - Theophylline A Attempt #3 (HarryS)]

>  <Unit label>
nM

>  <Reading>
291

$$$$
>  <Chain sequence>
UCAUCGGUACAAGGAUAUUAGAGGUAGUGAUGUUACCCGUUUUUUAUACAUCGAUGUCACCCUAACUAAGAAGGUGUUCAAACUU [theeternabot_exclusion_KL_FMN_B_7]

>  <Unit label>
nM

>  <Reading>
54

$$$$
>  <Chain sequence>
AAGUGAUGUUGUAGUGAUGUUGUGAUGUUGCAGGAUAUAUAGUGAUGUAGAAGGGUAUGUGCAGUUUUCAUAUUUGAGUGUUGAU [mkkhmullin]

>  <Unit label>
nM

>  <Reading>
56.5

$$$$
>  <Chain sequence>
UGUAUGUGAUUUGAUACCAGACCAGCUGAUGGAUCACGAGUGAUGUUCGUGUUGGUUUGGGUCCCUUGGCAGCAAAUCGCAUACU [KL-SSTheoB14]

>  <Unit label>
nM

>  <Reading>
248

$$$$

# evaluate next
Given the entry GCCUUAUAUCGAGCUACAGCUCGAUUUGGUCGAGGACCGGUACGGCCGCCACUCGAAUGAUAGUGAUGUUAUCAUUAUGGCCUAA [JR_ExcTryptoA_Sub022] , report its measured apparent KD of K4 kissing-loop reporter. 130

====

test system: K4 kissing-loop RNA reporter; test: apparent KD of K4 kissing-loop reporter; higher = weaker reporter binding; details: Eterna round: R107; input ligand: none
Hi, to clarify the labels: yes covers apparent KD of K4 kissing-loop reporter from 400 nM upward, no covers anything below 400 nM.

Use the examples below as a reference point.
>  <Chain sequence>
UGAUAGGACAGAAGGAGCGGCAGUGAUGUUGCCAAAAGGUUAAGGUGUCAAAAGACACCCUGCCAGGUAGGUCGCUGUCCUAUCU

>  <Measured on>
K4 kissing-loop RNA reporter

>  <Assigned label>
no

$$$$
>  <Chain sequence>
AGAAAGAAGGCGGCCGCCACUCUGAUGGGCGAAAGCCCAUUUUUUUAGCAGUGAUGUUGCUUGUUGAGGACCGGGCCAAAGAAAU [2nd]

>  <Measured on>
K4 kissing-loop RNA reporter

>  <Assigned label>
no

$$$$
>  <Chain sequence>
GGGUGGUAGGCGGCCGCCACUCUGAGCACCCACUGAGUGAUGUUCGUGGCGUAAGCCUGUUCAUAGAGGACCGGGUUUGUUGUUC [Exclusion Tryptophan B GF 16]

>  <Measured on>
K4 kissing-loop RNA reporter

>  <Assigned label>
yes

$$$$
>  <Chain sequence>
UAUCAGAUUACUGAUACCAGUCUAAAGACAGUGAUGUUGUCUGAUCGACCACGAUCCAAGGACCCUUGGCAGCAGUGUACUAUUC [#30 K4 Theophylline B Same State]

>  <Measured on>
K4 kissing-loop RNA reporter

>  <Assigned label>
no

$$$$
>  <Chain sequence>
AGACUACUGAUAGGAUAUAACAUACUAACUCGUAUACCAAAGGUAUACGAGACCCUUCUAGUGAUGUUAGAAGGGUCGGUAGUCA [Omei KL FMN B Exc B v6]

>  <Measured on>
K4 kissing-loop RNA reporter

>  <Assigned label>
no

$$$$
>  <Chain sequence>
GCAGUGAUGUUGCGCAUGUACAGUGGAGUGCGAGGACCGGUACGGCCGCCACUCGUACAGAACAAGCUAAUAUAUGGAUAGGUGA [IX]

>  <Measured on>
K4 kissing-loop RNA reporter

>  <Assigned label>
yes

$$$$
>  <Chain sequence>
UUUCGUUUCGUCUGACAUAAUUGGCUAGAAGGAGCGGUAAAAUUACCAGGUAGGUCGCUAGCCCAGUGAUGUUGGGACUAGCAUA [Onqudi]

>  <Measured on>
K4 kissing-loop RNA reporter

>  <Assigned label>
no

$$$$
>  <Chain sequence>
GUCUCAAAAGAGGCAAGCACUCACGAGGACAAGGAUAUCAUAUCAAUGAGAAGGUGUCCUCGUCCUUAGUGAUGUUAAGGAGUGC [Omei KL FMN A SS E v3]

>  <Measured on>
K4 kissing-loop RNA reporter;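 note: bound reporter read as fluorescence of individual clusters on recovered sequencing chips by microscopy, with normalized cluster intensities fitted with a binding model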

>  <Assigned label>
no

$$$$

Can GUUACGCAUGGAAGGAGCGCUCUCCGGUUUAUUAACACAGUGAUGUUGUGAUUUUACCGAAAGCAGGUAGGUCGCCAUGUGUAAC [Ex Arginine B K4 12] be said to have apparent KD of K4 kissing-loop reporter at or above 400 nM? yes

Can UUGUAAAAGUCGGCCGCCACUCCGGGCCCUAUAAAUGGGCGCAGUGAUGUUGCGGCUAGGCCUCUGAGGACCGGGACUUUAUAGC [Xeismaarbe] be said to have apparent KD of K4 kissing-loop reporter at or above 400 nM? no

Can GCCAUCAGGUCGCAAGACCUGAUAGCCGAUACCAGCGCGAAGGUGCGCCCUUGGCAGCGGCACCGAGUGAUGUUCGGUCAGGCGG [#2 Same State - Theophylline A Attempt #3 (HarryS)] be said to have apparent KD of K4 kissing-loop reporter at or above 400 nM? yes

Can AUUAUAAAGGCGGCCGCCACUAGUGAUGUUAGUGACUUAUGUAUUAUCAUAAGAAUAAAAUAAAAUAGGACCGGGCCAAAAUAUU [AstrosExTryB#3] be said to have apparent KD of K4 kissing-loop reporter at or above 400 nM? yes
